target: Metabotropic glutamate receptor 8 (Rattus norvegicus); assay: mGluR8 Gi/Go-coupled signaling modulation – cell-based, rat, thallium flux, HTS, primary screen (AID 488969); details: HEK293 rat mGluR8, GIRK (G protein-gated inwardly rectifying potassium channel) thallium flux, FluoZin2; at 10 µM; stronger effect = higher value; submaximal glutamate (EC20) added with thallium
The full ranking holds about 110,000 compounds; the median of “z-score” is about -0.1, and the highest 2% start at about 2. The list comes from a sample in which the highest values are over-represented; it also holds close analogues and randomly drawn compounds.
Entries annotated with measured z-score
Reply: number alone, nothing else.

As a guide, the following entries are already answered.
1. O=C(COc1ccc(OCc2ccccc2)cc1)NC1CCOC1=O (centres undefined) | -0.0067
2. COCCCNC(=O)c1cccc(NC(=O)c2ccccc2)c1 | -0.13
3. CCN1C(=O)CC(N2CCC(Cc3ccccc3)CC2)C1=O (centres undefined) | -0.239

Item `COc1cc(Cl)cc2c1Sc1ccccc1/C2=C/CCN(C)C` ; assay system Metabotropic glutamate receptor 8 (Rattus norvegicus); z-score reported as 3.63

Provenance of the data: PubChem BioAssay AID488969
